Assignment: determine reported hERG current change (%, negative = inhibition) at 10uM for the given molecules.
- test-target: human ether-à-go-go-related gene (hERG) potassium channel (human)
- experiment: primary screen, population patch clamp on CHO cells stably expressing hERG; higher = less effect of the substance
Hit rate of the full screen: of about 310,000 compounds, about 14,000 (4.5%) showed an effect of 50% or more. The effect is printed as a negative number. Many of the other results were omitted from the sample, so strong results are more common in it than they were.
Kindly provide the numeric value in % only, without the unit symbol.

Return hERG current change (%, negative = inhibition) at 10uM (reported value) for this molecule: C#Cc1cccc(C(=O)NC2CCCN(C3Cc4ccccc4C3)C2)c1 (centres unmarked) -64.4

Return hERG current change (%, negative = inhibition) at 10uM (reported value) for this molecule: `CN(C)CCn1c2c(c(SCC(=O)Nc3ccccc3)nc1=O)CCCC2` -26.7

Return hERG current change (%, negative = inhibition) at 10uM (reported value) for this molecule: `COCCCNC(=O)Cc1c(C)c2c(cc(C)c3c(C(C)(C)C)coc32)oc1=O` -32.3

Return hERG current change (%, negative = inhibition) at 10uM (reported value) for this molecule: `COc1ccc(NC(=O)CSc2nc(=O)n(CCN(C)C)c3c2CCCC3)cc1OC` -11.5

Return hERG current change (%, negative = inhibition) at 10uM (reported value) for this molecule: `CCOc1ccc(CN2CCN(S(=O)(=O)c3ccc(NC(C)=O)cc3)CC2)cc1.O=C(O)C(=O)O` -50.4

====

- test-target: human ether-à-go-go-related gene (hERG) potassium channel (human, UniProt Q12809);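 also: peak tail current of the secondary pulse compared with the same well before compound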
- Sequence (Q12809 whole entry, looked up): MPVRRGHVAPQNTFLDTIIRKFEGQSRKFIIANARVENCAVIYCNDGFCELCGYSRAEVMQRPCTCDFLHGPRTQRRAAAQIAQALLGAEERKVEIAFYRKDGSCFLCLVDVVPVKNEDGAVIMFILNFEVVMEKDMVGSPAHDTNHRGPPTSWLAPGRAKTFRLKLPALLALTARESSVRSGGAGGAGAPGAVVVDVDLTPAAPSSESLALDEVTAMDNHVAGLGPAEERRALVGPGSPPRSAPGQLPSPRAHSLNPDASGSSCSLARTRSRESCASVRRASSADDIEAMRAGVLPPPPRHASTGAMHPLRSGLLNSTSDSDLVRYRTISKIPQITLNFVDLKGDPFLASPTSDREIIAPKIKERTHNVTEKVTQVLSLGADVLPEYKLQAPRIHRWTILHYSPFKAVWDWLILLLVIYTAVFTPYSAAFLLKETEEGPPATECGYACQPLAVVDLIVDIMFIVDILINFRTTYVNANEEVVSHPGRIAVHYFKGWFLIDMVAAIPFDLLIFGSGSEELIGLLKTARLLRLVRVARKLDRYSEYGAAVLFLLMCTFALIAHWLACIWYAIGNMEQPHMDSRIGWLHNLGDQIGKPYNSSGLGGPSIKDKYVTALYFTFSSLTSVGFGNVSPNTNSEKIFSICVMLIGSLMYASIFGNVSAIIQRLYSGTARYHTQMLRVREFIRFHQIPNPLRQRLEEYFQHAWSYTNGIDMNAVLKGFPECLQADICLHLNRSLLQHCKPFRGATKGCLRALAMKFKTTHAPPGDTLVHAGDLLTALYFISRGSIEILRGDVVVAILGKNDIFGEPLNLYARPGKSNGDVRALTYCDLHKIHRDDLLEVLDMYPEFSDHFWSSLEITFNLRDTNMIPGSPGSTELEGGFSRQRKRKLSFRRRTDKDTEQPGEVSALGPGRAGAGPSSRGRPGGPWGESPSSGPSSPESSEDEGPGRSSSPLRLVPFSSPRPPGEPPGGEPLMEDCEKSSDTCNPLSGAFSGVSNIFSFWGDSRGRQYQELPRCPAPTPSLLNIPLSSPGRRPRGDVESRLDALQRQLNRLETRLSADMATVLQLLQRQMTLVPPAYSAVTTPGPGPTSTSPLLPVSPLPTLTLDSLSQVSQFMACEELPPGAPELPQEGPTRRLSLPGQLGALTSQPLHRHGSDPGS
- experiment: primary screen, population patch clamp on CHO cells stably expressing hERG; higher = less effect of the substance
The whole screen tested about 310,000 compounds, of which about 14,000 (4.5%) showed an effect of 50% or more. Effects have a minus sign here. Shown is part of a subset that was picked to be rich in strong results.
assay-metric: hERG current change (%, negative = inhibition) at 10uM (%)
Kindly provide the numeric value in % only, without the unit symbol.

// fetch hERG current change (%, negative = inhibition) at 10uM; item: COCCNC(=O)C(c1cccs1)N(CCc1ccccc1)C(=O)Cn1nnc2ccccc21 (stereo not drawn) ; system: human ether-à-go-go-related gene (hERG) potassium channel (human, UniProt Q12809) 6.51

// fetch hERG current change (%, negative = inhibition) at 10uM; item: `O=C(Nc1cccc(Cl)c1)c1cc(S(=O)(=O)N2CCCCC2)c[nH]1` ; system: human ether-à-go-go-related gene (hERG) potassium channel (human, UniProt Q12809) -9.13

// fetch hERG current change (%, negative = inhibition) at 10uM; item: `CCc1cc2c(=O)nc3n(c2s1)Cc1ccccc1/C3=C(/O)c1ccc(F)cc1` ; system: human ether-à-go-go-related gene (hERG) potassium channel (human, UniProt Q12809) -3.7

// fetch hERG current change (%, negative = inhibition) at 10uM; item: `Cc1ccc(C(=O)N2CCOCC2)cc1Cl` ; system: human ether-à-go-go-related gene (hERG) potassium channel (human, UniProt Q12809) 2.91

// fetch hERG current change (%, negative = inhibition) at 10uM; item: `CCN(CC)CCCN(C(=O)c1ccco1)c1nc(-c2ccc(C)cc2)cs1.Cl` ; system: human ether-à-go-go-related gene (hERG) potassium channel (human, UniProt Q12809) -84.1

// fetch hERG current change (%, negative = inhibition) at 10uM; item: `COc1cccc(NC(=O)c2cccc(OC)c2OC)c1` ; system: human ether-à-go-go-related gene (hERG) potassium channel (human, UniProt Q12809) -0.56

// fetch hERG current change (%, negative = inhibition) at 10uM; item: `Cn1c(COc2cccc3cccnc23)nnc1SCC(=O)O` ; system: human ether-à-go-go-related gene (hERG) potassium channel (human, UniProt Q12809) 9.13

// fetch hERG current change (%, negative = inhibition) at 10uM; item: `COc1cccc(C(=O)Nc2sc(C(C)C)cc2C(N)=O)c1OC` ; system: human ether-à-go-go-related gene (hERG) potassium channel (human, UniProt Q12809) -50.5

// fetch hERG current change (%, negative = inhibition) at 10uM; item: `CCN(C(=O)c1ccco1)c1nc(-c2ccc(OC)cc2)cs1` ; system: human ether-à-go-go-related gene (hERG) potassium channel (human, UniProt Q12809) 8.13

====

- test-target: human ether-à-go-go-related gene (hERG) potassium channel (human, UniProt Q12809);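 also: peak tail current of the secondary pulse compared with the same well before compound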
- experiment: primary screen, population patch clamp on CHO cells stably expressing hERG; higher = less effect of the substance
About 14,000 (4.5%) of roughly 310,000 compounds showed an effect of 50% or more. Effects have a minus sign here. The full list was thinned out, with strong results kept by preference.
assay-metric: hERG current change (%, negative = inhibition) at 10uM (%)
Kindly provide the numeric value in % only, without the unit symbol.

Return hERG current change (%, negative = inhibition) at 10uM (reported value) for this compound: COc1ccc(-n2nc(C(=O)NCC(=O)NC3CCCC(C)C3C)c3ccccc3c2=O)cc1 (stereo not drawn) 8.55

Return hERG current change (%, negative = inhibition) at 10uM (reported value) for this compound: `C=CCn1c(SCc2ccc3nonc3c2)nnc1-c1cccs1` -68.7

Return hERG current change (%, negative = inhibition) at 10uM (reported value) for this compound: `S=C(c1ccc(-c2cccc(Cl)c2)o1)N1CCCCC1` 21.7

Return hERG current change (%, negative = inhibition) at 10uM (reported value) for this compound: CC(OC(=O)c1cccs1)C(=O)NC1CCCCC1C (stereo not drawn) -66.7

Return hERG current change (%, negative = inhibition) at 10uM (reported value) for this compound: CC(OC(=O)CCC(=O)c1cccs1)C(=O)NC1CCCCC1C (stereo not drawn) -6.24

Return hERG current change (%, negative = inhibition) at 10uM (reported value) for this compound: `C=CCn1c2ccccc2c2nnc(SCc3ccc4nonc4c3)nc21` 0.592

====

- test-target: human ether-à-go-go-related gene (hERG) potassium channel (human);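 also: peak tail current of the secondary pulse compared with the same well before compound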
- experiment: primary screen, population patch clamp on CHO cells stably expressing hERG; higher = less effect of the substance
About 14,000 (4.5%) of roughly 310,000 compounds showed an effect of 50% or more. The effect is printed as a negative number. For the sample, strong results were picked, then their nearest neighbours and some compounds at random.
Assignment: determine reported hERG current change (%, negative = inhibition) at 10uM for the given molecules.
Kindly provide the numeric value in % only, without the unit symbol.

Return hERG current change (%, negative = inhibition) at 10uM (reported value) for this molecule: `COc1ccc(C(=O)N/N=C/c2ccc(OC)c(CN3CCCc4ccccc43)c2)cc1` -11.9

Return hERG current change (%, negative = inhibition) at 10uM (reported value) for this molecule: `Cl.Clc1cccc(Nc2nc(N3CCOCC3)nc(N3CCOCC3)n2)c1` 16.9

Return hERG current change (%, negative = inhibition) at 10uM (reported value) for this molecule: CCn1cc(C(=O)NCCCN2CC(C)CC(C)C2)c(=O)c2cc(S(=O)(=O)N(C)C)ccc21 (stereo not drawn) -55.5

Return hERG current change (%, negative = inhibition) at 10uM (reported value) for this molecule: CCn1cc(C(=O)N2CC(C)CC(C)C2)c(=O)c2cc(S(=O)(=O)N(C)C)ccc21 (stereo not drawn) -8.98

Return hERG current change (%, negative = inhibition) at 10uM (reported value) for this molecule: `COC(=O)C1=C(C(=O)OC)[C@@H]2N(C)c3ccccc3[C@@]23C[C@@H](C(=O)OC)N(C(=O)c2ccc(Br)cc2)C3=N1` -1.06

Return hERG current change (%, negative = inhibition) at 10uM (reported value) for this molecule: `COc1ccc(/C=N\NC(=O)c2ccc(F)cc2)cc1COc1ccccc1C(N)=O` -44.3

Return hERG current change (%, negative = inhibition) at 10uM (reported value) for this molecule: `COc1ccc(/C=N/NC(=O)c2ccccc2OC)cc1COc1ccccc1[N+](=O)[O-]` 8.94

Return hERG current change (%, negative = inhibition) at 10uM (reported value) for this molecule: COc1ccc(/C=N/NC(=O)c2ccccc2[N+](=O)[O-])cc1CN1CCc2cc(OC)c(OC)cc2C1C (stereo not drawn) -63.9

Return hERG current change (%, negative = inhibition) at 10uM (reported value) for this molecule: `CCc1nnc(NC(=O)CCN2C(=O)c3ccccc3S2(=O)=O)s1` 17.3

====

Assignment: determine reported hERG current change (%, negative = inhibition) at 10uM for the given molecules.
- test-target: human ether-à-go-go-related gene (hERG) potassium channel (human, UniProt Q12809);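 also: peak tail current of the secondary pulse compared with the same well before compound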
- experiment: primary screen, population patch clamp on CHO cells stably expressing hERG; higher = less effect of the substance
In all, about 310,000 compounds went through this assay and about 14,000 (4.5%) showed an effect of 50% or more. The effect is printed as a negative number. The list comes from a sample in which strong results are over-represented; it also holds close analogues and randomly drawn compounds.
Kindly provide the numeric value in % only, without the unit symbol.

Return hERG current change (%, negative = inhibition) at 10uM (reported value) for this molecule: `Cc1cccn2c(=O)c3cc(C(=O)NC4CCCC4)c(=N)n(CCc4ccccc4)c3nc12` -74.5

Return hERG current change (%, negative = inhibition) at 10uM (reported value) for this molecule: `COc1ccc(CNC(=O)[C@H](C)N2C(=O)N3CCc4c([nH]c5ccc(OC)cc45)[C@@]3(C)C2=O)cc1` 9.36

Return hERG current change (%, negative = inhibition) at 10uM (reported value) for this molecule: `CCc1ccc(NC(=O)C(=O)N/N=C(\C)CC(=O)Nc2ccccn2)cc1` -8.33

Return hERG current change (%, negative = inhibition) at 10uM (reported value) for this molecule: `C[C@]12CC[C@@H](O)C[C@@H]1CC[C@@H]1[C@@H]2CC[C@]2(C)[C@@H](O)CC[C@@H]12` 19.8

Return hERG current change (%, negative = inhibition) at 10uM (reported value) for this molecule: `COc1ccc(Cc2nnc(NC(=O)Nc3ccc(C)cc3)s2)cc1OC` 10.2

Return hERG current change (%, negative = inhibition) at 10uM (reported value) for this molecule: `CC(=O)N=c1c(C#N)cc2c(=O)n3cccc(C)c3nc2n1Cc1ccco1` -35.3

Return hERG current change (%, negative = inhibition) at 10uM (reported value) for this molecule: `COc1ccc(CCn2c(=N)c(C(=O)NC3CCCC3)cc3c(=O)n4cccc(C)c4nc32)cc1` -77.8

Return hERG current change (%, negative = inhibition) at 10uM (reported value) for this molecule: `CC(C)n1c(=NC(=O)c2ccco2)c(C#N)cc2c(=O)n3ccccc3cc21` -52.2

Return hERG current change (%, negative = inhibition) at 10uM (reported value) for this molecule: `COc1ccc(NC(=S)N(CCCN2CCCC2)Cc2cccn2Cc2ccc(Cl)cc2)cc1Cl` -6.98

Return hERG current change (%, negative = inhibition) at 10uM (reported value) for this molecule: `CN(C(=O)c1ccc(NC(=O)Cc2ccc(NC(=O)C3CCN(C(=O)CCc4ccccc4)CC3)cc2)cc1)C1CC1` 9.51

Return hERG current change (%, negative = inhibition) at 10uM (reported value) for this molecule: `CCCCN1C(=O)/C(=C2/Sc3ccc(OC)cc3N2CC)SC1=S` 25.5

Return hERG current change (%, negative = inhibition) at 10uM (reported value) for this molecule: COC(=O)C1Cc2c([nH]c3ccccc23)C2(CCN(Cc3ccccc3)CC2)N1 (stereo not shown) -68.2

Return hERG current change (%, negative = inhibition) at 10uM (reported value) for this molecule: COCCNC(=O)CN1C2CCC1CC(O)(c1cccnc1)C2 (stereo not shown) 0.682

Return hERG current change (%, negative = inhibition) at 10uM (reported value) for this molecule: `Cc1cccn2c(=O)c3cc(C(=O)NC4CCCC4)sc3nc12` -22.8

Return hERG current change (%, negative = inhibition) at 10uM (reported value) for this molecule: `CN(NC(=O)C(C)(C)C)c1nc(-c2ccccc2)nnc1C(F)(F)F` -4.05

Return hERG current change (%, negative = inhibition) at 10uM (reported value) for this molecule: `COC(=O)C1=C(c2ccc(OC(F)(F)F)cc2)C[C@@H]2CC[C@H]1N2C(=O)N1CCC(O)CC1` -36.2

Return hERG current change (%, negative = inhibition) at 10uM (reported value) for this molecule: `Cc1c(NC(=O)/C=C/c2cn(-c3ccccc3)nc2-c2ccc(F)cc2)c(=O)n(-c2ccccc2)n1C` 7.47

Return hERG current change (%, negative = inhibition) at 10uM (reported value) for this molecule: `COC(=O)[C@H]1Cc2c([nH]c3ccccc23)[C@H](c2ccccc2)N1` 5.76

Return hERG current change (%, negative = inhibition) at 10uM (reported value) for this molecule: `COC(=O)C1=C(c2ccc(OC(F)(F)F)cc2)C[C@@H]2CC[C@H]1N2C(=O)NCC1CC1` -58.6

Return hERG current change (%, negative = inhibition) at 10uM (reported value) for this molecule: `Cn1cc(Br)c(C(=O)Nc2c(F)c(F)c(F)c(F)c2F)n1` -6.6

Return hERG current change (%, negative = inhibition) at 10uM (reported value) for this molecule: `CC(=O)N=c1c(C#N)cc2c(=O)n3ccccc3nc2n1Cc1ccccc1` -40.2

Return hERG current change (%, negative = inhibition) at 10uM (reported value) for this molecule: `Nc1nnnn1CC(=O)OCc1cccc(Br)c1` -13.8

Return hERG current change (%, negative = inhibition) at 10uM (reported value) for this molecule: O=C(CN1C2CCC1CC(O)(c1cccnc1)C2)Nc1ccc2c(c1)OCO2 (stereo not shown) -53.1

Return hERG current change (%, negative = inhibition) at 10uM (reported value) for this molecule: `CC(C)c1cc(-c2cc(C(=O)Nc3ccccc3)on2)nc(NCC2CC2)n1` 10.3

Return hERG current change (%, negative = inhibition) at 10uM (reported value) for this molecule: `Cc1cc(C)cc(-c2nnc(SCC(=O)NCc3cccs3)o2)c1` 4.21

meta.source: paper PMC4336329
